# Tested on: PC12 cells
# MEASUREMENT NOTES: MTT toxicity (safety evaluation) on PC12 nerve cells
# Type: cell-based
# EXPERIMENTAL PARAMETERS: 3.75-60 μM, 24 h and 48 h, in words
MEASURED PARAMETER: cytotoxicity to PC12 cells

COc1cc(/C=C2\CN(C)C/C(=C\c3cc(Cl)c(O)c(OC)c3)C2=O)cc(Cl)c1O | high

====

# Tested on: PC12 cells
# MEASUREMENT NOTES: MTT toxicity (safety evaluation) on PC12 nerve cells
# Type: cell-based
# EXPERIMENTAL PARAMETERS: PC12, 60 μM, 24 h
MEASURED PARAMETER: Relative growth rate (%) 24 h
Numbers only, in %.

Solved cases (3 shown):
COc1cc(/C=C2\CNC/C(=C\c3cc(Cl)c(O)c(OC)c3)C2=O)cc(Cl)c1O | 114.78
O=C1/C(=C/c2cc(Cl)c(O)c(Cl)c2)CNC/C1=C\c1cc(Cl)c(O)c(Cl)c1 | 104.04
CN1C/C(=C\c2cc(Cl)c(O)c(Cl)c2)C(=O)/C(=C/c2cc(Cl)c(O)c(Cl)c2)C1 | 88.18

# batch: return Relative growth rate (%) 24 h for each of the 4 compounds below
1. COc1cc(/C=C2\CN(C)C/C(=C\c3cc(Cl)c(O)c(OC)c3)C2=O)cc(Cl)c1O
2. COc1cc(/C=C2\CN(C(C)C)C/C(=C\c3cc(Cl)c(O)c(OC)c3)C2=O)cc(Cl)c1O
3. CC(C)N1C/C(=C\c2cc(Cl)c(O)c(Cl)c2)C(=O)/C(=C/c2cc(Cl)c(O)c(Cl)c2)C1
4. CCN1C/C(=C\c2cc(Cl)c(O)c(Cl)c2)C(=O)/C(=C/c2cc(Cl)c(O)c(Cl)c2)C1

output:
49.53
41.84
101.64
77.51
